# Target: AP C3-convertase (C3bBb) (UniProt P01024)
# Sequence (P01024 23-667 limits assumed, chain 1 of 3): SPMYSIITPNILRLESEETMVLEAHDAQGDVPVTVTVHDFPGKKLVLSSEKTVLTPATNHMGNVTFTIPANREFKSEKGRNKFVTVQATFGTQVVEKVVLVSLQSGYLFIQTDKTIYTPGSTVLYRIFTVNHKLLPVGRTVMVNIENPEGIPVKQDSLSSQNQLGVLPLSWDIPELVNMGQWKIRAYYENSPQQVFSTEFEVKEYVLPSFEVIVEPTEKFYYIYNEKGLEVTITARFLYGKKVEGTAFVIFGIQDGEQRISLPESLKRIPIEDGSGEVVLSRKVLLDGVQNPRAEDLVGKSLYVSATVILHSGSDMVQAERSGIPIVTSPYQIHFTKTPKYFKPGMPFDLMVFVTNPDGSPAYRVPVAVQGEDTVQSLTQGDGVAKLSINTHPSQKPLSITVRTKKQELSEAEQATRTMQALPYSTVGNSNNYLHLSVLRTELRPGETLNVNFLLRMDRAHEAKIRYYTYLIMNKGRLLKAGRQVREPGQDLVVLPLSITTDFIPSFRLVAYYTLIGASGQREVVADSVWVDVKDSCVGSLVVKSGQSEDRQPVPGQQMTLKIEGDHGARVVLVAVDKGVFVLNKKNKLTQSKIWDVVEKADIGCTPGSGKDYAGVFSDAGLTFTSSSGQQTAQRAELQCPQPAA
# Sequence (P01024 749-1663 limits assumed, chain 2 of 3): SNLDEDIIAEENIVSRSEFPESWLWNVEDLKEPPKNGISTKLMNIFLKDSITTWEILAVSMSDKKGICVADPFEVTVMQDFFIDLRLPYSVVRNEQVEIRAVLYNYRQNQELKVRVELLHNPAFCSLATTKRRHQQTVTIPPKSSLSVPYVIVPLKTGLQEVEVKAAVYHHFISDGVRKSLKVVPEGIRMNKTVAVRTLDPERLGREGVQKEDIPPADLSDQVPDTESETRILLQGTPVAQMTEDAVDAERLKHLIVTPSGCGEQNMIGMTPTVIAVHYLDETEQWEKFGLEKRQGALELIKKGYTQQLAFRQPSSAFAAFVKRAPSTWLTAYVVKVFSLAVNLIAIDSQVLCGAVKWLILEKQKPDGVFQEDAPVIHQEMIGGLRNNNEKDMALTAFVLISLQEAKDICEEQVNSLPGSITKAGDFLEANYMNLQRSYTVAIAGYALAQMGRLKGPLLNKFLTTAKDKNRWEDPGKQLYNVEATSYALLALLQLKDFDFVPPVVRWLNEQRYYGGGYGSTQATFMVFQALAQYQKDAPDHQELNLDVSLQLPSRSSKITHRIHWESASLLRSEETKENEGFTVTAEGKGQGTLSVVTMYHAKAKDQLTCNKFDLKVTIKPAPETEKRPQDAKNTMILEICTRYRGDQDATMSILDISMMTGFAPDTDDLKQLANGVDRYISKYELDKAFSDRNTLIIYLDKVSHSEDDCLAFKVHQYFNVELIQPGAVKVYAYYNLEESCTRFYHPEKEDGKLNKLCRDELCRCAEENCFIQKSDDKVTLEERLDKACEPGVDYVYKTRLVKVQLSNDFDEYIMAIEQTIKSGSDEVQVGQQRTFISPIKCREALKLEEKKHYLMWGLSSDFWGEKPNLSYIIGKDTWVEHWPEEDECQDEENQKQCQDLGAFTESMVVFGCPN
# Sequence (P00751 260-764 limits assumed, chain 3 of 3, further chain): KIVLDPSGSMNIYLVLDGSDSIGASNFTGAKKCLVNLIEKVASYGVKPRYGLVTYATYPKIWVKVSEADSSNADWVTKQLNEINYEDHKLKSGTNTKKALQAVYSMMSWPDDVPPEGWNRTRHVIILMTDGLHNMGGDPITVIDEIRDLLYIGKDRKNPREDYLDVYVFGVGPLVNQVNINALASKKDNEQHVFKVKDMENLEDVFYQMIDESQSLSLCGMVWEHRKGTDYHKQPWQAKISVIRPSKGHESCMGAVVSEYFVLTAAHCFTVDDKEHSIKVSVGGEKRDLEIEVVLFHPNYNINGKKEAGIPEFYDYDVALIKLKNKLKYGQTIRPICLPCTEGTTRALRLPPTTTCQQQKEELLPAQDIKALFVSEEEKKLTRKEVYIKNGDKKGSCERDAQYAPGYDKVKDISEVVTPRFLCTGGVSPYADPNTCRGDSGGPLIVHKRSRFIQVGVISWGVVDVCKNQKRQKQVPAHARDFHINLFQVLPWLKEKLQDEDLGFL
# Assay Details: cell-based or functional assay
What Relative AP-DAA was measured for each of the following?
Hey, just send me the number, nothing else.

Q: Please report Relative AP-DAA for the following binder: D2D3M3M4 (F197I) (protein) CEVPTRLNSASLKQPYITQNYFPVGTVVEYECRPGYRREPSLSPKLTCLQNLKWSTAVEFCKKKSCPNPGEIRNGQIDVPGGILFGATISFSCNTGYKLIGSTSSFCLISGSSVQWSDPLPECREIYCTPPPKIKNGKHTFSEVEVFEYLDAVTYSCDPAPGPDPFSLIGESTIYCGDNSVWSRAAPECKVVKCRFPVVENGKQISGFGKKFYYKATVMFECDKGFYLDGSDTIVCDSNSTWDPPVPKCLKVL
Ans: 0.3

Q: Entry D2D3M3M4 (T200Y) (protein) CEVPTRLNSASLKQPYITQNYFPVGTVVEYECRPGYRREPSLSPKLTCLQNLKWSTAVEFCKKKSCPNPGEIRNGQIDVPGGILFGATISFSCNTGYKLFGSYSSFCLISGSSVQWSDPLPECREIYCTPPPKIKNGKHTFSEVEVFEYLDAVTYSCDPAPGPDPFSLIGESTIYCGDNSVWSRAAPECKVVKCRFPVVENGKQISGFGKKFYYKATVMFECDKGFYLDGSDTIVCDSNSTWDPPVPKCLKVL needs its Relative AP-DAA filled in; supply it.
Ans: 0.56
